- STUDY_SYSTEM: CB2 receptor (Homo sapiens, UniProt P34972)
- Sequence (P34972 whole entry): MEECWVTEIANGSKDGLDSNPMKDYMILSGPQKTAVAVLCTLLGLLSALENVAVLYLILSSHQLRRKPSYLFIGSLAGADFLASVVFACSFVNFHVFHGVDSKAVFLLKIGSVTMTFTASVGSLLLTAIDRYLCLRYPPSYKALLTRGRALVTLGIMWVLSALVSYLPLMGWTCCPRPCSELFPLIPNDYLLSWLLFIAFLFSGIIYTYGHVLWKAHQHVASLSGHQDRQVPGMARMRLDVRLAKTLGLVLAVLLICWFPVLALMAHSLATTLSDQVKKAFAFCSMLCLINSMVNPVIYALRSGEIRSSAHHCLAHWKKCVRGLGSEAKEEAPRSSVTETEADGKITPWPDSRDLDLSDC
- ASSAY_REMARKS: cAMP Assay #2: Hit Hunter cAMP assay, Gi-coupled agonist activity, CB2
- Type: cell-based
- Parameters: host or cells: cAMP Hunter cell lines
- STUDY_CONDITIONS: Hit Hunter cAMP, CB1 EC50 / CB2 EC50
MEASURE: CB2 fold selectivity
The answer should be written as a number, with no unit following it.

Entry CCCCCCC(C)(C)c1cc(O)c2c(c1)OC(C)(C)c1ccc(C(=O)O)cc1-2 , CB2 fold selectivity reported as 9.3

Lab book: CB2 fold selectivity of CCCCCCC(C)(C)c1cc(O)c2c(c1)OC(C)(C)[C@@H]1CC=C(C(=O)NC[C@@H](O)CO)C[C@@H]21 noted as 30.5

# compound CCCCCCC(C)(C)c1cc(O)c2c(c1)OC(C)(C)[C@@H]1CC=C(C(=O)NC3CCCC3)C[C@@H]21 ; its CB2 fold selectivity = 17.7

// recorded CB2 fold selectivity for CCCCCCC(C)(C)c1cc(O)c2c(c1)OC(C)(C)[C@@H]1CC=C(C(=O)NCCO)C[C@@H]21 : 8.2

CCCCCCC(C)(C)c1cc(O)c2c(c1)OC(C)(C)[C@@H]1CC=C(C(=O)N[C@H]3C[C@@H](O)C3)C[C@@H]21 yielded CB2 fold selectivity of 31.4

Sure, the documented CB2 fold selectivity for CCCCCCC(C)(C)c1cc(O)c2c(c1)OC(C)(C)[C@@H]1CC=C(C(=O)OC(C)C)C[C@@H]21 is 9.6

* * *

- STUDY_SYSTEM: UniProt P21554
- Sequence (P21554 whole entry): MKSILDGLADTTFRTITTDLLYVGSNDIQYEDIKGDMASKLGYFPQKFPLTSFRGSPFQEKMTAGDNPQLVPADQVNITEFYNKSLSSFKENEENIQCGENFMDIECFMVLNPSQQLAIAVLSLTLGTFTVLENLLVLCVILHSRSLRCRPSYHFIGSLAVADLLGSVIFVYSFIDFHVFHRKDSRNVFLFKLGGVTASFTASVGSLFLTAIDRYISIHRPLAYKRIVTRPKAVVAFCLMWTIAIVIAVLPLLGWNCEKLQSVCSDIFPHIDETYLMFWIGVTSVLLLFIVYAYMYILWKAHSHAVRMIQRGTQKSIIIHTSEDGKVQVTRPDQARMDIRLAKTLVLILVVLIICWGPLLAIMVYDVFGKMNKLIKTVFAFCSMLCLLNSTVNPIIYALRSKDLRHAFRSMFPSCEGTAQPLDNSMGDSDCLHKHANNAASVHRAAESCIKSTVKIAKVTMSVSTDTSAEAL
- ASSAY_REMARKS: cell-based
- Set-up: host or cells: PathHunter cell lines
MEASURE: EC50 (nM)
Please reply with the bare figure in nM and do not write the unit itself.

Documented EC50 of CCCCCCC(C)(C)c1cc(O)c2c(c1)OC(C)(C)[C@@H]1CC=C(C(=O)NC(C)(C)C)C[C@@H]21 [Compound 95] : 23.9

Per the records, this compound ( CCCCCCC(C)(C)c1cc(O)c2c(c1)OC(C)(C)[C@@H]1CC=C(C(=O)NC3(C(F)(F)F)CC3)C[C@@H]21 [Compound 99] ) has EC50 equal to 32.5

The recorded EC50 for entry CCCCCCC(C)(C)c1cc(O)c2c(c1)OC(C)(C)[C@@H]1CC=C(C(=O)NC(C)=N)C[C@@H]21 [Compound 94] equals 94.9

Looking up CCCCCCC(C)(C)c1cc(O)c2c(c1)OC(C)(C)[C@@H]1CC=C(C(=O)NC(C)C)C[C@@H]21 [Compound 91] , I see its EC50 listed as 20.9

Consider CCCCCCC(C)(C)c1cc(O)c2c(c1)OC(C)(C)[C@@H]1CC=C(C(=O)O)C[C@@H]21 [AJA, reference compound] . Its measured EC50 is 1240

* * *

Kindly state concentration at 4 h for each of the entries shown.
- ASSAY_REMARKS: Brain concentration and brain/plasma ratio after PO dose in mice
- Type: in vivo
- STUDY_CONDITIONS: mouse, brain; 10 mg/kg PO, male C57BL/6 mice, 4 h

Memo: CCCCCCC(C)(C)c1cc(O)c2c(c1)OC(C)(C)[C@@H]1CC=C(C(=O)NC(C)(C)CCO)C[C@@H]21 [Compound 15] , reported concentration at 4 h: 107 ng/g

response.value for CCCCCCC(C)(C)c1cc(O)c2c(c1)OC(C)(C)[C@@H]1CC=C(C(=O)OC(C)C)C[C@@H]21 [Compound 29] (field: concentration at 4 h) = 1.72 ng/g
